# System: 233499-124-R-J3-PDC complex spheroid growth;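 also: spheroids exposed to agents for seven days before reading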
# Test Method Notes: Anticancer human tumor 233499-124-R-J3-PDC patient-derived colon adenocarcinoma cell line growth inhibition [AhR]
# Study Conditions: curve of first compound; second compound 0.316 µM
# Text: Multicellular complex tumor spheroid response to aryl hydrocarbon receptor antagonists in combination with a variety of drugs and investigational agents in selected tumor cell lines […] Compounds. […] If the clinical Cmax for an agent had not been determined, the highest concentration tested was 10 microM (Table 1). […]
pIC50: −log10 of the molar value.
Parameter pIC50: see the listing below.

{"columns": ["Compound", "Data Value"],
 "data": [
  ["CC1COCCN1c1cc(C2(S(C)(=N)=O)CC2)nc(-c2ccnc3[nH]ccc23)n1 (stereo unspecified) + Cc1ccccc1N=Nc1ccc(NC(=O)c2ccnn2C)c(C)c1", "< 5.00"],
  ["Nc1ncn(C2CC(O)C(CO)O2)c(=O)n1 (stereo unspecified) + Cc1ccccc1N=Nc1ccc(NC(=O)c2ccnn2C)c(C)c1", "< 6.00"],
  ["Cn1ncnc1C1c2n[nH]c(=O)c3cc(F)cc(c23)NC1c1ccc(F)cc1 (stereo unspecified) + Cc1cncc(-c2nc(NCCc3c[nH]c4ccccc34)c3ncn(C(C)C)c3n2)c1", "< 7.00"],
  ["Nc1ccn(C2OC(CO)C(O)C2(F)F)c(=O)n1 (stereo unspecified) + CC(CO)NC(=O)c1cc(-c2ccc(Cl)cc2)nn(-c2cnn(C)c2)c1=O", 6.95],
  ["CC(C)CC(NC(=O)C(Cc1ccccc1)NC(=O)c1cnccn1)B(O)O (stereo unspecified) + Cc1cncc(-c2nc(NCCc3c[nH]c4ccccc34)c3ncn(C(C)C)c3n2)c1", 7.88]
]}

Noted for O=C(C=Cn1cnc(-c2cc(C(F)(F)F)cc(C(F)(F)F)c2)n1)NNc1cnccn1 + CC(CO)NC(=O)c1cc(-c2ccc(Cl)cc2)nn(-c2cnn(C)c2)c1=O : its pIC50 reads < 5.52

The reported measurements were obtained from PubChem BioAssay AID1918993.
